# Test system: oilseed rape
# experimental-protocol: Test C postemergence
# Assay type: in vivo, Brassica napus
# protocol-conditions: Oilseed Rape, 62 g ai/ha
Quick rule for you: Plant response rating (scale of 0 to 100 where 0 is no effect and 100 is complete control) under 70 gets YES, anything else gets NO.

Known results for compounds:
>  <chemical-string>
CCOc1nc(-c2ccc(Cl)cc2)nn1Cc1ccnc(C(F)(F)F)c1

>  <experimental-target>
oilseed rape

>  <group-label>
NO

$$$$
>  <chemical-string>
CCOc1nc(-c2ccccc2)nn1Cc1ccnc(C(F)(F)F)c1

>  <experimental-target>
oilseed rape

>  <group-label>
NO

$$$$
>  <chemical-string>
Fc1ccc(-c2nc(OCC(F)(F)F)n(Cc3ccnc(C(F)(F)F)c3)n2)cc1

>  <experimental-target>
oilseed rape

>  <group-label>
NO

$$$$

hey, is Plant response rating (scale of 0 to 100 where 0 is no effect and 100 is complete control) for COc1nc(-c2ccccc2)nn1Cc1ccnc(C(F)(F)F)c1 lower than 70 or not?
YES

Moving on to the next compound: CCCOc1nc(-c2ccccc2)nn1Cc1ccnc(C(F)(F)F)c1
YES

###

# System: galium
# experimental-protocol: Test C preemergence
# Format: in vivo, Galium aparine
# protocol-conditions: Preemergence, 62 g ai/ha, visual rating after 13 to 15 d
endpoint: Galium plant response rating (0 to 100)
Number only, please.

Please review the following examples before continuing.
>  <chemical-string>
FC(F)(F)COc1nc(-c2ccccc2)nn1Cc1ccnc(C(F)(F)F)c1

>  <experimental-target>
galium

>  <Galium plant response rating (0 to 100)>
30

$$$$
>  <chemical-string>
COc1nc(-c2ccc(F)cc2)nn1Cc1ccnc(C(F)(F)F)c1

>  <experimental-target>
galium

>  <Galium plant response rating (0 to 100)>
5

$$$$
>  <chemical-string>
CCOc1nc(-c2ccccc2)nn1Cc1ccnc(C(F)(F)F)c1

>  <experimental-target>
galium

>  <Galium plant response rating (0 to 100)>
95

$$$$

Would you kindly share the measured Galium plant response rating (0 to 100) for CCOc1nc(-c2ccc(C(F)(F)F)cc2)nn1Cc1ccnc(C(F)(F)F)c1 ?
80

###

Property: Plant response rating, Foxtail, Giant; scope: individual compounds
# Test system: foxtail, giant
# experimental-protocol: Test A preemergence
# Assay type: in vivo, Setaria faberii
# protocol-conditions: 500 g ai/ha, 0 to 100 scale (0 no effect, 100 complete control), approx. 10 d
// return just the number, without any unit appended

Please review the entries below; each comes with its answer.
>  <chemical-string>
Cc1nc(-c2ccc(C(F)(F)F)cc2)nn1Cc1ccnc(C(F)(F)F)c1

>  <assay-value>
100

$$$$
>  <chemical-string>
CCCn1nc(-c2ccc(F)cc2)nc1C(=O)c1ccnc(C(F)(F)F)c1

>  <assay-value>
90

$$$$
>  <chemical-string>
CCCOc1nc(-c2ccccc2)nn1Cc1ccnc(C(F)(F)F)c1

>  <assay-value>
100

$$$$
>  <chemical-string>
Fc1ccc(-c2nc(OCC(F)(F)F)n(Cc3ccnc(C(F)(F)F)c3)n2)cc1

>  <assay-value>
100

$$$$

Alright, here's another compound for you.
Which Plant response rating, Foxtail, Giant value belongs to Cn1nc(-c2ccc(F)cc2)nc1Cc1ccnc(C(F)(F)F)c1 ?
100
